Taken from patent US11939361B2.

Test: Solubility of acetate form of SEQ ID NO: 1 in various media
Type: physicochemical
Details: 0.1 N NaOH, aqueous buffer
parameter: solubility

Prompt: Please report the measured solubility for CC(=O)NCCCC[C@@H]1NC(=O)[C@H](Cc2c[nH]c3c(C)cccc23)NC(=O)[C@H]([C@@H](C)O)NC(=O)[C@H](CC(N)=O)NC(=O)[C@@H](NC(C)=O)C(C)(C)SSC(C)(C)[C@@H](C(=O)N[C@@H](Cc2ccc(OCCN)cc2)C(=O)N[C@@H](Cc2ccc3ccccc3c2)C(=O)NC2(C(=O)N[C@@H](CCC(=O)O)C(=O)N[C@@H](CC(N)=O)C(=O)N[C@@H](Cc3cccnc3)C(=O)N(C)CC(N)=O)CCOCC2)NC1=O [Acetate Form of SEQ ID NO: 1]
Response: > 870 mg/mL

* * *

Assay: Rat PK Study 1: intraduodenal/intracolonic dosing with absorption enhancers
Assay type: in vivo, Sprague Dawley rats
Conditions: male, Sprague Dawley, plasma, other: intracolonic, 10 mg/kg, IC dose 10 mg/kg, SNAC 100 mg/kg
parameter: AUC(0-t) (ng·h/mL)
Give the value, in units of ng·h/mL, as a plain number.

Prompt: Please report the measured AUC(0-t) for CC(=O)NCCCC[C@@H]1NC(=O)[C@H](Cc2c[nH]c3c(C)cccc23)NC(=O)[C@H]([C@@H](C)O)NC(=O)[C@H](CC(N)=O)NC(=O)[C@@H](NC(C)=O)C(C)(C)SSC(C)(C)[C@@H](C(=O)N[C@@H](Cc2ccc(OCCN)cc2)C(=O)N[C@@H](Cc2ccc3ccccc3c2)C(=O)NC2(C(=O)N[C@@H](CCC(=O)O)C(=O)N[C@@H](CC(N)=O)C(=O)N[C@@H](Cc3cccnc3)C(=O)N(C)CC(N)=O)CCOCC2)NC1=O [SEQ ID NO: 1]
Response: 309

* * *

Assay: clinical
Details: human, in vivo, po, 10 mg
parameter: AUC (ng·h/mL)
Give the value, in units of ng·h/mL, as a plain number.

Prompt: Please report the measured AUC for CC(=O)NCCCC[C@@H]1NC(=O)[C@H](Cc2c[nH]c3c(C)cccc23)NC(=O)[C@H]([C@@H](C)O)NC(=O)[C@H](CC(N)=O)NC(=O)[C@@H](NC(C)=O)C(C)(C)SSC(C)(C)[C@@H](C(=O)N[C@@H](Cc2ccc(OCCN)cc2)C(=O)N[C@@H](Cc2ccc3ccccc3c2)C(=O)NC2(C(=O)N[C@@H](CCC(=O)O)C(=O)N[C@@H](CC(N)=O)C(=O)N[C@@H](Cc3cccnc3)C(=O)N(C)CC(N)=O)CCOCC2)NC1=O [SEQ ID NO: 1]
Response: 1.56

* * *

Assay: Rat PK Study 1: intraduodenal/intracolonic dosing with absorption enhancers
Type: in vivo, Sprague Dawley rats
Conditions: male, Sprague Dawley, plasma, other: intraduodenal, 10 mg/kg, ID dose 10 mg/kg, Sucrose laurate 100 mg/kg
parameter: Tmax (min)
Give the value, in units of min, as a plain number.

Prompt: Please report the measured Tmax for `CC(=O)NCCCC[C@@H]1NC(=O)[C@H](Cc2c[nH]c3c(C)cccc23)NC(=O)[C@H]([C@@H](C)O)NC(=O)[C@H](CC(N)=O)NC(=O)[C@@H](NC(C)=O)C(C)(C)SSC(C)(C)[C@@H](C(=O)N[C@@H](Cc2ccc(OCCN)cc2)C(=O)N[C@@H](Cc2ccc3ccccc3c2)C(=O)NC2(C(=O)N[C@@H](CCC(=O)O)C(=O)N[C@@H](CC(N)=O)C(=O)N[C@@H](Cc3cccnc3)C(=O)N(C)CC(N)=O)CCOCC2)NC1=O`
Response: 15

* * *

Assay: Solubility of acetate form of SEQ ID NO: 1 in various media
Format: physicochemical
Conditions: aqueous buffer; Borate buffer pH 9
Method: An acetate form of SEQ ID NO: 1 prepared according to Example 1 was evaluated for solubility under various conditions.
parameter: solubility

Prompt: Please report the measured solubility for CC(=O)NCCCC[C@@H]1NC(=O)[C@H](Cc2c[nH]c3c(C)cccc23)NC(=O)[C@H]([C@@H](C)O)NC(=O)[C@H](CC(N)=O)NC(=O)[C@@H](NC(C)=O)C(C)(C)SSC(C)(C)[C@@H](C(=O)N[C@@H](Cc2ccc(OCCN)cc2)C(=O)N[C@@H](Cc2ccc3ccccc3c2)C(=O)NC2(C(=O)N[C@@H](CCC(=O)O)C(=O)N[C@@H](CC(N)=O)C(=O)N[C@@H](Cc3cccnc3)C(=O)N(C)CC(N)=O)CCOCC2)NC1=O [Acetate Form of SEQ ID NO: 1]
Response: > 220 mg/mL

* * *

Experiment: Colon and colonic content concentrations in rat TNBS colitis model (LC-MS/MS)
Assay type: in vivo, Sprague Dawley rats
Conditions: Sprague Dawley, colon, po, 0.33 mg/kg, Study 3, 0.33 mg/kg TID oral, total daily dose 1 mg/kg, read-out: Mean concentration in Colon
parameter: tissue level at time at 168 h (ng/g)
Give the value, in units of ng/g, as a plain number.

Prompt: Please report the measured tissue level at time at 168 h for CC(=O)NCCCC[C@@H]1NC(=O)[C@H](Cc2c[nH]c3c(C)cccc23)NC(=O)[C@H]([C@@H](C)O)NC(=O)[C@H](CC(N)=O)NC(=O)[C@@H](NC(C)=O)C(C)(C)SSC(C)(C)[C@@H](C(=O)N[C@@H](Cc2ccc(OCCN)cc2)C(=O)N[C@@H](Cc2ccc3ccccc3c2)C(=O)NC2(C(=O)N[C@@H](CCC(=O)O)C(=O)N[C@@H](CC(N)=O)C(=O)N[C@@H](Cc3cccnc3)C(=O)N(C)CC(N)=O)CCOCC2)NC1=O [SEQ ID NO: 1]
Response: 158

* * *

Test: Rat PK Study 1: intraduodenal/intracolonic dosing with absorption enhancers
Type: in vivo, Sprague Dawley rats
Conditions: male, Sprague Dawley, plasma, other: intracolonic, 10 mg/kg, IC dose 10 mg/kg, Enteris A 60 mg/kg
parameter: Tmax (min)
Give the value, in units of min, as a plain number.

Prompt: Please report the measured Tmax for CC(=O)NCCCC[C@@H]1NC(=O)[C@H](Cc2c[nH]c3c(C)cccc23)NC(=O)[C@H]([C@@H](C)O)NC(=O)[C@H](CC(N)=O)NC(=O)[C@@H](NC(C)=O)C(C)(C)SSC(C)(C)[C@@H](C(=O)N[C@@H](Cc2ccc(OCCN)cc2)C(=O)N[C@@H](Cc2ccc3ccccc3c2)C(=O)NC2(C(=O)N[C@@H](CCC(=O)O)C(=O)N[C@@H](CC(N)=O)C(=O)N[C@@H](Cc3cccnc3)C(=O)N(C)CC(N)=O)CCOCC2)NC1=O [SEQ ID NO: 1]
Response: 15

* * *

Experiment: Rat PK Study 1: intraduodenal/intracolonic dosing with absorption enhancers
Type: in vivo, Sprague Dawley rats
Settings: male, Sprague Dawley, plasma, other: intraduodenal, 10 mg/kg, ID dose 10 mg/kg, Labrasol 100 mg/kg
parameter: AUC(0-t)
Remember to follow the number with its unit.

Prompt: Please report the measured AUC(0-t) for CC(=O)NCCCC[C@@H]1NC(=O)[C@H](Cc2c[nH]c3c(C)cccc23)NC(=O)[C@H]([C@@H](C)O)NC(=O)[C@H](CC(N)=O)NC(=O)[C@@H](NC(C)=O)C(C)(C)SSC(C)(C)[C@@H](C(=O)N[C@@H](Cc2ccc(OCCN)cc2)C(=O)N[C@@H](Cc2ccc3ccccc3c2)C(=O)NC2(C(=O)N[C@@H](CCC(=O)O)C(=O)N[C@@H](CC(N)=O)C(=O)N[C@@H](Cc3cccnc3)C(=O)N(C)CC(N)=O)CCOCC2)NC1=O [SEQ ID NO: 1]
Response: 617 ng·h/mL

* * *

Test: Colon and colonic content concentrations in rat TNBS colitis model (LC-MS/MS)
Format: in vivo, Sprague Dawley rats
Conditions: Sprague Dawley, colon content, po, 1 mg/kg, Study 2, 1 mg/kg TID oral, total daily dose 3 mg/kg, read-out: Mean concentration in Colon content
parameter: tissue level at time at 168 h (ng/g)
Give the value, in units of ng/g, as a plain number.

Prompt: Please report the measured tissue level at time at 168 h for `CC(=O)NCCCC[C@@H]1NC(=O)[C@H](Cc2c[nH]c3c(C)cccc23)NC(=O)[C@H]([C@@H](C)O)NC(=O)[C@H](CC(N)=O)NC(=O)[C@@H](NC(C)=O)C(C)(C)SSC(C)(C)[C@@H](C(=O)N[C@@H](Cc2ccc(OCCN)cc2)C(=O)N[C@@H](Cc2ccc3ccccc3c2)C(=O)NC2(C(=O)N[C@@H](CCC(=O)O)C(=O)N[C@@H](CC(N)=O)C(=O)N[C@@H](Cc3cccnc3)C(=O)N(C)CC(N)=O)CCOCC2)NC1=O`
Response: 22200

* * *

Experiment: Solubility of acetate form of SEQ ID NO: 1 in various media
Assay type: physicochemical
Settings: aqueous buffer; Citrate buffer pH 2
Experimental: An acetate form of SEQ ID NO: 1 prepared according to Example 1 was evaluated for solubility under various conditions.
parameter: solubility (mg/mL)
Give the value, in units of mg/mL, as a plain number.

Prompt: Please report the measured solubility for CC(=O)NCCCC[C@@H]1NC(=O)[C@H](Cc2c[nH]c3c(C)cccc23)NC(=O)[C@H]([C@@H](C)O)NC(=O)[C@H](CC(N)=O)NC(=O)[C@@H](NC(C)=O)C(C)(C)SSC(C)(C)[C@@H](C(=O)N[C@@H](Cc2ccc(OCCN)cc2)C(=O)N[C@@H](Cc2ccc3ccccc3c2)C(=O)NC2(C(=O)N[C@@H](CCC(=O)O)C(=O)N[C@@H](CC(N)=O)C(=O)N[C@@H](Cc3cccnc3)C(=O)N(C)CC(N)=O)CCOCC2)NC1=O [Acetate Form of SEQ ID NO: 1]
Response: 270
